The reader will find reported log10(MFI at 33.3 nM) values listed item by item below.
# TEST TARGET: CTLA4 (human)
# Sequence (chain, as listed by the source): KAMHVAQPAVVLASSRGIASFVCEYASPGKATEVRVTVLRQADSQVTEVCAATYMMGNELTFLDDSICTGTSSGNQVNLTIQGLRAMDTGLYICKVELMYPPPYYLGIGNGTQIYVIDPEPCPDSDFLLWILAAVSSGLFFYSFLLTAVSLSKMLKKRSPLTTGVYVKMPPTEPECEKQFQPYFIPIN
# ASSAY PROTOCOL: flow cytometry, CHO cells stably expressing CTLA4
For clarity, the numbers are log10 values of MFI at 33.3 nM expressed in MFI.

A selection of reference data follows.
{"BINDER": "CD80 variant Q33L/E35D/M43I/L85Q/R94W IgV-Fc (Fc fusion) VIHVTKEVKEVATLSCGHNVSVEELAQTRIYWLKDKKMVLTMISGDMNIWPEYKNRTIFDITNNLSIVILALRPSDEGTYECVVQKYEKDAFKWEHLAEVT", "TEST VALUE": 3.03}
{"BINDER": "CD80 variant Y31S/E35D/M47L/T79L/E88G IgV-Fc (Fc fusion) VIHVTKEVKEVATLSCGHNVSVEELAQTRISWQKDKKMVLTMMSGDLNIWPEYKNRTIFDITNNLSIVILALRPSDEGLYECVVLKYGKDAFKREHLAEVT", "TEST VALUE": 3.04}
{"BINDER": "CD80 variant A26E/Q33L/E35D/M47L/L85Q IgV-Fc (Fc fusion) VIHVTKEVKEVATLSCGHNVSVEELEQTRIYWLKDKKMVLTMMSGDLNIWPEYKNRTIFDITNNLSIVILALRPSDEGTYECVVQKYEKDAFKREHLAEVT", "TEST VALUE": 3.07}
{"BINDER": "CD80 variant A26E/Q33R/E35D/M47L/L85Q/K86E IgV-Fc (Fc fusion) VIHVTKEVKEVATLSCGHNVSVEELEQTRIYWRKDKKMVLTMMSGDLNIWPEYKNRTIFDITNNLSIVILALRPSDEGTYECVVQEYEKDAFKREHLAEVT", "TEST VALUE": 3.11}
{"BINDER": "CD80 variant E35D/M47L/L85Q IgV-Fc (Fc fusion) VIHVTKEVKEVATLSCGHNVSVEELAQTRIYWQKDKKMVLTMMSGDLNIWPEYKNRTIFDITNNLSIVILALRPSDEGTYECVVQKYEKDAFKREHLAEVT", "TEST VALUE": 5.53}
{"BINDER": "CD80 variant H18Y/E35D/V68M/L97Q IgV-Fc (Fc fusion) VIHVTKEVKEVATLSCGYNVSVEELAQTRIYWQKDKKMVLTMMSGDMNIWPEYKNRTIFDITNNLSIMILALRPSDEGTYECVVLKYEKDAFKREHQAEVT", "TEST VALUE": 5.24}
{"BINDER": "CD80 variant H18L/V22A/E35D/M47L/N48T/L85Q IgV-Fc (Fc fusion) VIHVTKEVKEVATLSCGLNVSAEELAQTRIYWQKDKKMVLTMMSGDLTIWPEYKNRTIFDITNNLSIVILALRPSDEGTYECVVQKYEKDAFKREHLAEVT", "TEST VALUE": 5.57}
{"BINDER": "CD80 variant V22A/E35D/V68E/A71D IgV-Fc (Fc fusion) VIHVTKEVKEVATLSCGHNVSAEELAQTRIYWQKDKKMVLTMMSGDMNIWPEYKNRTIFDITNNLSIEILDLRPSDEGTYECVVLKYEKDAFKREHLAEVT", "TEST VALUE": 5.64}
{"BINDER": "CD80 variant Q33L/E35D/T41S/M43I IgV-Fc (Fc fusion) VIHVTKEVKEVATLSCGHNVSVEELAQTRIYWLKDKKMVLSMISGDMNIWPEYKNRTIFDITNNLSIVILALRPSDEGTYECVVLKYEKDAFKREHLAEVT", "TEST VALUE": 3.81}
{"BINDER": "CD80 variant H18Y/E35D/M47L IgV-Fc (Fc fusion) VIHVTKEVKEVATLSCGYNVSVEELAQTRIYWQKDKKMVLTMMSGDLNIWPEYKNRTIFDITNNLSIVILALRPSDEGTYECVVLKYEKDAFKREHLAEVT", "TEST VALUE": 5.45}

From here, focus on the item given below.
Inquiry: What does the record list as log10(MFI at 33.3 nM) for CD80 variant Q33K/E35D/D46V/L85Q IgV-Fc (Fc fusion) VIHVTKEVKEVATLSCGHNVSVEELAQTRIYWKKDKKMVLTMMSGVMNIWPEYKNRTIFDITNNLSIVILALRPSDEGTYECVVQKYEKDAFKREHLAEVT ?
Reply text: 3.93
